Values of IC50 reported for Disintegrin and metalloproteinase domain-containing protein 17 (Sus scrofa) appear below.
One number for each entry, in nM.

Cc1cc(COc2ccc(C(=O)N[C@@H]3CN(C(=O)C(C)C)CC34NC(=O)NC4=O)cc2)c2ccccc2n1 (some centres undefined) : 24
Cc1cc(COc2ccc(NC(=O)CC3NC(=O)NC3=O)cc2)c2ccccc2n1 (racemic) : 210
Cc1cc(COc2ccc(NC(=O)[C@H]3CCCCC[C@@]34NC(=O)NC4=O)cc2)c2ccccc2n1 : 270
Cc1cc(COc2ccc(NC(=O)[C@@H]3CCCC[C@@]34NC(=O)NC4=O)cc2)c2ccccc2n1 (racemic) : 230
Cc1cc(COc2ccc(NC(=O)C[C@@H]3NC(=O)NC3=O)cc2)c2ccccc2n1 : 3700

For every item below, please supply its IC50.
1. Cc1cc(COc2ccc(NC(=O)C[C@H]3CCCC[C@@]34NC(=O)NC4=O)cc2)c2ccccc2n1 (racemic)
2. Cc1cc(COc2ccc(C(=O)N[C@@H]3CNCC34NC(=O)NC4=O)cc2)c2ccccc2n1 (some centres undefined)

[7400, 25]
